Target: Adenosine receptor A2a (Homo sapiens) (UniProt P29274)
Sequence (P29274 whole entry): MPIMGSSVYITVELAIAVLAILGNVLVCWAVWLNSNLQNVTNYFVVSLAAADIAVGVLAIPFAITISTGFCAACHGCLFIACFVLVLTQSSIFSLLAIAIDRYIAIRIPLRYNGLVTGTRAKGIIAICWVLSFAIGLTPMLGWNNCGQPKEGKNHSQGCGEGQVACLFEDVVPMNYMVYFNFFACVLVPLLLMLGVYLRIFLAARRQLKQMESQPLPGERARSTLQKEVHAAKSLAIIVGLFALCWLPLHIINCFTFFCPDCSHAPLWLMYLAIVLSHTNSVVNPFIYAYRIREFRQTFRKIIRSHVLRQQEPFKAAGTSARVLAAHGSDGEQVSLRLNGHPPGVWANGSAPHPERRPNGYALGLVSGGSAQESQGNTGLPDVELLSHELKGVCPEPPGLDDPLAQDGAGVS
Test: Inhibition of [3H]CGS21680 binding to human adenosine A2A receptor at 0.1 umol/L by scintillation counting
outcome.measure: inhibition (%)

> print(dat)
                              smiles.record  reported.result
1  COC(=O)c1ccc(OC)c2oc(C(=O)Nc3ccc(Cn4ccnc4)cc3)cc12               80
2      COC(=O)Nc1cc2c(-c3ccccc3)ccc(OC)c2o1               85
3  COc1ccc(-c2ccccc2)c2cc(C(=O)NN3CCOCC3)oc12               81
